Parameter inhibition of growth at 0.05 µg/mL: see the listing below.
# System: Leptosphaeria nodorum (LEPTNO)
# ASSAY DETAILS: In vitro fungitoxicity of hydrazones with and without copper towards Leptosphaeria nodorum (Example 26)
# Assay type: cell-based
# RUN PARAMETERS: Parastagonospora nodorum, 72 h, compound 0.05 μg/mL, copper-minus medium, 72 h at 25° C.; read-out: LEPTNO % Inhn. Minus Copper Observed
Form entry: value (%) — number only.

Some compounds with known inhibition of growth at 0.05 µg/mL results, for comparison:
CC/C(=N\NC(=O)c1cccc(Oc2ccccc2)c1)c1ccccc1O [Example 44] :: 0.3
C/C(=N\NC(=O)c1ccc(C)cc1)c1cccc([N+](=O)[O-])c1O [Example 271] :: 6.9

For COc1ccc(O)c(/C(C)=N/NC(=O)c2ccccc2)c1 [Example 261] on Leptosphaeria nodorum (LEPTNO), measured inhibition of growth at 0.05 µg/mL was 2.7

For O=C(N/N=C/c1cc(Cl)cc(Cl)c1O)c1cccc(OC(F)(F)F)c1 [Example 250] on Leptosphaeria nodorum (LEPTNO), measured inhibition of growth at 0.05 µg/mL was 8.7

For O=C(N/N=C/c1cc(Cl)cc(Br)c1O)c1cc(Cl)ccc1Cl [Example 196] on Leptosphaeria nodorum (LEPTNO), measured inhibition of growth at 0.05 µg/mL was 4.4

For Cc1cccc(C(=O)N/N=C/c2cc(Br)cc(Br)c2O)c1 [Example 115] on Leptosphaeria nodorum (LEPTNO), measured inhibition of growth at 0.05 µg/mL was 6.1

For CNc1ccccc1C(=O)N/N=C/c1ccccc1O [Example 3] on Leptosphaeria nodorum (LEPTNO), measured inhibition of growth at 0.05 µg/mL was 2.3

For C/C(=N\NC(=O)c1ccc(F)cc1)c1ccccc1O [Example 62] on Leptosphaeria nodorum (LEPTNO), measured inhibition of growth at 0.05 µg/mL was 0

For C/C(=N\NC(=O)c1ccc(Cl)cc1)c1ccc(Cl)cc1O [Example 257] on Leptosphaeria nodorum (LEPTNO), measured inhibition of growth at 0.05 µg/mL was 6

For COc1cccc(C(=O)N/N=C/c2cc(Cl)cc(Br)c2O)c1 [Example 166] on Leptosphaeria nodorum (LEPTNO), measured inhibition of growth at 0.05 µg/mL was 2.6

For O=C(Cc1ccc(F)cc1)N/N=C/c1cc(Cl)cc(Cl)c1O [Example 126] on Leptosphaeria nodorum (LEPTNO), measured inhibition of growth at 0.05 µg/mL was 13.2

For O=C(N/N=C/c1cc(Cl)cc(Cl)c1O)c1ccc(C(F)(F)F)cc1 [Example 81] on Leptosphaeria nodorum (LEPTNO), measured inhibition of growth at 0.05 µg/mL was 2.4

###

# System: Phytophthora capsici
# ASSAY DETAILS: Fungitoxicity of copper-hydrazone mixtures of different ratios towards Phytophthora capsici (Example 36, Table 12)
# Assay type: cell-based
# RUN PARAMETERS: Phytophthora capsici, Hydrazone:Cu ratio 1 to 62.5; read-out: Hydrazone EC50 (amount of hydrazone in mixture at EC50)
MEASUREMENT KIND: pEC50
// pEC50: -log10(molar conc.)

Input O=C(N/N=C/c1cc(Cl)cc(Cl)c1O)c1ccccc1 . Output pEC50: 7.78

###

Parameter inhibition of growth at 0.05 µg/mL: see the listing below.
# System: Leptosphaeria nodorum (LEPTNO)
# ASSAY DETAILS: In vitro fungitoxicity of hydrazones with and without copper towards Leptosphaeria nodorum (Example 26)
# Format: cell-based
# RUN PARAMETERS: Parastagonospora nodorum, 72 h, copper-minus medium; test compound Concn. 0.05 μg/mL; 72 h at 25° C.; read-out: LEPTNO % Inhn. Minus Copper Observed
Form entry: value (%) — number only.

C/C(=N\NC(=O)c1ccc2ccccc2c1O)c1cc(Cl)cc(Cl)c1O [Example 480] :: 9.5
Cc1cccc(C(=O)N/N=C/c2cc(Cl)cc(C(F)(F)F)c2O)c1 [Example 376] :: 13.6
O=C(N/N=C/c1cc(C(F)(F)F)cc(Cl)c1O)c1ccc(F)cc1 [Example 324] :: 2.3
C/C(=N\NC(=O)c1ccc(Br)cc1)c1cccc([N+](=O)[O-])c1O [Example 522] :: 9.4
COc1ccc(/C(C)=N/NC(=O)c2ccccc2Br)c(O)c1OC [Example 561] :: 0

Input O=C(N/N=C/c1c(C(F)(F)F)ccc(Cl)c1O)c1ccccc1 [Example 319] . Output inhibition of growth at 0.05 µg/mL: 18.1

Input Cc1ccc(C(=O)N/N=C/c2c(C(F)(F)F)ccc(Cl)c2O)cc1 [Example 448] . Output inhibition of growth at 0.05 µg/mL: 27.1

Input C/C(=N\NC(=O)c1ccccc1C)c1cc(C(F)(F)F)ccc1O [Example 528] . Output inhibition of growth at 0.05 µg/mL: 8.7

Input O=C(N/N=C/c1cc(Cl)cc(C(F)(F)F)c1O)c1ccc(Cl)cc1 [Example 381] . Output inhibition of growth at 0.05 µg/mL: 31.8

Input C/C(=N\NC(=O)c1ccccc1Cl)c1cc(C)ccc1O [Example 315] . Output inhibition of growth at 0.05 µg/mL: 2.7

Input C/C(=N\NC(=O)c1ccccc1)c1cccc(Cl)c1O [Example 492] . Output inhibition of growth at 0.05 µg/mL: 0

Input C/C(=N\NC(=O)c1ccc(C)cc1)c1cc(F)cc(F)c1O [Example 575] . Output inhibition of growth at 0.05 µg/mL: 0

Input C/C(=N\NC(=O)c1ccc(Br)cc1)c1cc(Cl)ccc1O [Example 512] . Output inhibition of growth at 0.05 µg/mL: 7.4

Input COc1ccc(C(=O)N/N=C(\C)c2cccc([N+](=O)[O-])c2O)cc1 [Example 521] . Output inhibition of growth at 0.05 µg/mL: 5

Input Cc1ccc(C(=O)N/N=C/c2cc(C(F)(F)F)cc(Cl)c2O)c(O)c1 [Example 331] . Output inhibition of growth at 0.05 µg/mL: 22.8

Input O=C(N/N=C/c1cc(Cl)cc(C(F)(F)F)c1O)c1cccc(F)c1 [Example 378] . Output inhibition of growth at 0.05 µg/mL: 26.3

Input O=C(N/N=C/c1cccc(C(F)(F)F)c1O)c1cccc([N+](=O)[O-])c1 [Example 349] . Output inhibition of growth at 0.05 µg/mL: 17.4

Input C/C(=N\NC(=O)c1ccccc1Br)c1cc(F)cc(F)c1O [Example 582] . Output inhibition of growth at 0.05 µg/mL: 12.2

Input C/C(=N\NC(=O)c1ccccc1Cl)c1cc(F)cc(F)c1O [Example 576] . Output inhibition of growth at 0.05 µg/mL: 0.7

###

# System: Leptosphaeria nodorum (LEPTNO)
# ASSAY DETAILS: In vitro fungitoxicity of hydrazones with and without copper towards Leptosphaeria nodorum (Example 26)
# Format: cell-based
# RUN PARAMETERS: Parastagonospora nodorum, 72 h, copper-minus medium; test compound Concn. 0.05 μg/mL; 72 h at 25° C.; read-out: LEPTNO % Inhn. Minus Copper Observed
Parameter inhibition of growth at 0.05 µg/mL: see the listing below.
Form entry: value (%) — number only.

For O=C(N/N=C/c1c(O)cccc1Cl)c1cccc([N+](=O)[O-])c1 on Leptosphaeria nodorum (LEPTNO), measured inhibition of growth at 0.05 µg/mL was 0

For O=C(N/N=C/c1c(C(F)(F)F)ccc(Cl)c1O)c1cccc([N+](=O)[O-])c1 on Leptosphaeria nodorum (LEPTNO), measured inhibition of growth at 0.05 µg/mL was 5.6

For C/C(=N\NC(=O)c1ccccc1O)c1cc(Br)ccc1O on Leptosphaeria nodorum (LEPTNO), measured inhibition of growth at 0.05 µg/mL was 14.9

For COc1cc(O)c(/C(C)=N/NC(=O)c2ccc(Cl)cc2)c(OC)c1 on Leptosphaeria nodorum (LEPTNO), measured inhibition of growth at 0.05 µg/mL was 8

For Cc1ccc(C(=O)N/N=C/c2cc(Br)cc(F)c2O)cc1 on Leptosphaeria nodorum (LEPTNO), measured inhibition of growth at 0.05 µg/mL was 8.2

For O=C(N/N=C/c1c(Cl)ccc(Cl)c1O)c1cccc(Cl)c1 on Leptosphaeria nodorum (LEPTNO), measured inhibition of growth at 0.05 µg/mL was 7

For COc1cccc(/C(C)=N/NC(=O)c2ccccc2C)c1O on Leptosphaeria nodorum (LEPTNO), measured inhibition of growth at 0.05 µg/mL was 0

For COc1ccc(/C(C)=N/NC(=O)c2ccccc2Cl)c(O)c1OC on Leptosphaeria nodorum (LEPTNO), measured inhibition of growth at 0.05 µg/mL was 3.7

For O=C(N/N=C/c1c(O)cccc1Cl)c1ccccc1O on Leptosphaeria nodorum (LEPTNO), measured inhibition of growth at 0.05 µg/mL was 6.7

For C/C(=N\NC(=O)c1ccccc1C)c1cccc(Cl)c1O on Leptosphaeria nodorum (LEPTNO), measured inhibition of growth at 0.05 µg/mL was 0

For O=C(N/N=C/c1c(O)cccc1Cl)c1cccc(F)c1 on Leptosphaeria nodorum (LEPTNO), measured inhibition of growth at 0.05 µg/mL was 0.5

For O=C(N/N=C/c1ccc(Cl)cc1O)c1ccccc1O on Leptosphaeria nodorum (LEPTNO), measured inhibition of growth at 0.05 µg/mL was 8.2
